system: RPMI-8226 leukemia; experiment: NCI-60 one-dose screen, 48 h (100 = growth as untreated, 0 = no growth, -100 = all killed); settings: 10 µM unless noted
About 83,000 compounds went through this panel and 20% of them were active in at least one assay; those are over-represented in the sample as a whole.
In this section we review reported growth values for a set of molecules.
Reported property: growth (%)

Molecule: CC1(/C=C/c2ccc(-c3ccccc3)cc2)CCn2cnc3ncnc(c32)N1O (stereo not given)
Reported property: growth
Experimental value: 21.3
--
Molecule: CN(C)C1CN(C(=O)c2cc(-c3ccc4ncnc(N5CCc6cc(F)c(Cl)cc65)c4c3)cnc2N)C1
Reported property: growth
Experimental value: -10.8
--
Molecule: O=C1CCCCN1c1ccc(C2=NCCCN2)cc1
Reported property: growth
Experimental value: 57.4
--
Molecule: Cc1cc(C(=O)CCCC(=O)c2cc(C)c(O)c(C)c2)cc(C)c1O
Reported property: growth
Experimental value: 94.2
--
Molecule: C=C1C(=O)O[C@H]2[C@H]1CC/C(COC(=O)NCc1ccc(Cn3c(=O)sn(-c4ccccc4)c3=O)cc1)=C\CC[C@@]1(C)O[C@@H]21
Reported property: growth
Experimental value: 1.88
--
Molecule: O=C1NC(=O)C(c2coc3cc(Br)ccc23)=C1c1c[nH]c2ccccc12
Reported property: growth
Experimental value: 44.2
--
Molecule: COc1ccc(C2[C@@H](Cl)C(=O)N2c2cc(OC)c(OC)c(OC)c2)cc1Cl (stereo not given in full)
Reported property: growth
Experimental value: 9.34
--
Molecule: O=CN1N=C(c2cccc(Nc3ccnc4cc(Cl)ccc34)c2)CC1c1ccc(Cl)cc1 (stereo not given)
Reported property: growth
Experimental value: 32.9
--
Molecule: Nc1cc(-c2ccc(Cl)cc2)nn1-c1nnc(/C=C/c2ccco2)c(=O)[nH]1
Reported property: growth
Experimental value: 43.3
--
Molecule: Cc1c2cnccc2c(C)c2c1c1cc(CO)ccc1n2C
Reported property: growth
Experimental value: -20.5
--
Molecule: NCCCNc1nc2ccccc2c2c(=O)c3cc(Cl)ccc3sc12
Reported property: growth
Experimental value: -37.9
--
Molecule: CN(C)c1ccc([C@@H](C(=O)Nc2cccc([N+](=O)[O-])c2)N(C(=O)c2cc3ccccc3[nH]2)c2cccc([N+](=O)[O-])c2)cc1
Reported property: growth
Experimental value: 92.6
--
Molecule: O=C1C=C(SCCO)C(=O)c2ccccc21
Reported property: growth
Experimental value: 12.9
--
Molecule: O=C(/C=C/C12c3ccccc3C(c3ccccc31)C1C(=O)NC(=O)C12)c1ccc(Cl)cc1Cl (stereo not given)
Reported property: growth
Experimental value: -22.3
--
Molecule: CCOC(=O)c1nnn(Cc2cc(=O)oc3ccc(O)cc23)c1C
Reported property: growth
Experimental value: 96.7
--
Molecule: N#Cc1c(-c2cccc(Cl)c2)cc(-c2cccnc2)[nH]c1=O
Reported property: growth
Experimental value: 88.8
--
Molecule: CCOC(=O)c1ccc[nH]1
Reported property: growth
Experimental value: 90.5
--
Molecule: O=S(O)c1cc(Cl)cc(Cl)c1OCc1ccccc1
Reported property: growth
Experimental value: 93.1
--
Molecule: Brc1ccc(Nc2nc(Nc3cnc4ccccc4c3)c3[nH]cnc3n2)cc1
Reported property: growth
Experimental value: 64.2
--
Molecule: CCCCCCCCn1ccc2cc(NC(=O)CN3CCN(c4cc(C)nc(Cl)n4)CC3)ccc21
Reported property: growth
Experimental value: 73.5
--
Molecule: CCOC(=O)C(CCN(C)C)c1ccccc1 (stereo not given)
Reported property: growth
Experimental value: 98.2
--
Molecule: COC12C=C/C(=C(/C(=O)OCCSc3ccnn3C)C(=O)CCCCCCCCC3(OC)C=C/C(=C(/C(=O)OCCSc4ccnn4C)C(=O)CCCCCCCC1)O3)O2
Reported property: growth
Experimental value: -8.92
--
Molecule: CCOC(=O)C1=C(CC(O)c2ccc(OC)cc2OC)NC(=O)NC1c1ccccc1 (stereo not given)
Reported property: growth
Experimental value: 99.2
--
Molecule: O=C(/C=C/c1ccccc1)c1cccc2ccccc12
Reported property: growth
Experimental value: 6.78
--
Molecule: Fc1cccc(CNc2c3ccccc3nc3ccccc23)c1
Reported property: growth
Experimental value: 10.1
--
Molecule: Nc1nc(C(=O)N/N=C/c2ccc(F)cc2)nn1-c1ccc(S(N)(=O)=O)cc1
Reported property: growth
Experimental value: 91
--
Molecule: COCCn1cc(-c2nc(-c3cc4cccnc4n3C)cs2)c2ccccc21
Reported property: growth
Experimental value: 55.7
--
Molecule: NS(=O)(=O)c1ccc(C(=O)N=Nc2c(O)[nH]c3ccc(Cl)cc23)cc1
Reported property: growth
Experimental value: 98.5
--
Molecule: O=C(c1c[nH]c2ccccc12)c1n[nH]c(=S)n1-c1ccc([N+](=O)[O-])cc1
Reported property: growth
Experimental value: 68.4
--
Molecule: CSc1ccc(N2C(=N)C(=S)N(c3ccc(C)cc3)C2=O)cc1
Reported property: growth
Experimental value: 89
--
Molecule: C=C(C)[C@@H]1CC[C@]2(COC3CCCCO3)CC[C@]3(C)[C@H](CC[C@@H]4[C@@]5(C)C=C(C=O)C(=O)C(C)(C)[C@@H]5CC[C@]43C)[C@@H]12 (stereo not given in full)
Reported property: growth
Experimental value: -6.13
--
Molecule: Nc1cc(C(=O)O)cc(-n2c(O)c(C=C3N=c4ccccc4=N3)sc2=S)c1
Reported property: growth
Experimental value: 100
--
Molecule: c1cc(OCCN2CCCCC2)ccc1CNc1ccc2nc(CCC3CCCCC3)[nH]c2c1
Reported property: growth
Experimental value: -22.5
--
Molecule: C=CN(C(=O)N1CCN(c2cc3c(cc2F)c(=O)c(C(=O)O)cn3C2CC2)CC1)c1nc(-c2ccc(Cl)cc2)cs1
Reported property: growth
Experimental value: 15.9
--
Molecule: CCN(CC)CCOc1ccc(C(=O)/C=C\c2ccc(Cl)cc2Cl)cc1
Reported property: growth
Experimental value: -23.9
--
Molecule: C#CCOc1ccc2nc(CCl)c(Cl)c(Nc3cccc(C(F)(F)F)c3)c2c1
Reported property: growth
Experimental value: 62.7
--
Molecule: CCN1CCN(CCNc2nccc(-c3c(-c4ccc(F)c(O)c4)nc4occn34)n2)S1(=O)=O
Reported property: growth
Experimental value: -22.7
--
Molecule: COc1ccc(/C=C(/C(=O)N2CCNCC2)c2cc(OC)c(OC)c(OC)c2)cc1O
Reported property: growth
Experimental value: 9.6
--
Molecule: O=C1CCCC1[n+]1ccccc1 (stereo not given)
Reported property: growth
Experimental value: 103
--
Molecule: CNCC[C@H](Oc1cccc2ccccc12)c1cccs1
Reported property: growth
Experimental value: 94.7

The values you see were collected from PubChem BioAssay (NCI).
